Molecular target: LPA/S1P GPCR of interest (Homo sapiens, UniProt Q92633)
Sequence (Q92633 whole entry): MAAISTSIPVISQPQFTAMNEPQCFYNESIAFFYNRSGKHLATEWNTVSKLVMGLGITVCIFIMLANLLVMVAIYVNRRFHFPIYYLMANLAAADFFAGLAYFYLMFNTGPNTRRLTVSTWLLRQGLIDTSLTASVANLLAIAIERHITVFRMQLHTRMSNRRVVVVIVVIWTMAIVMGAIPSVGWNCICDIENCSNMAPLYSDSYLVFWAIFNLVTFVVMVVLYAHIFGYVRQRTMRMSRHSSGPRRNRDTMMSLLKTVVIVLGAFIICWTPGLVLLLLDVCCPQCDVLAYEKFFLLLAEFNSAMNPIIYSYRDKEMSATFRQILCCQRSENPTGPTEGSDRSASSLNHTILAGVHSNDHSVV
Assay: Beta-Arrestin based assay (PathHunter)
Experimental: CMV promoter based DNA constructs expressing a fusion of the LPA/S1P GPCR of interest and ProLink™ tag were used to transfect EA Parental™ CHO cells (DiscoverX, Fremont, Calif.) using a FuGENE® transfection kit (Roche). Beta-Arrestin based assays were conducted 24-48 hrs post transfection using PathHunter® assay kits (DiscoverX, Fremont, Calif.). […] End point luminescence data were plotted and fit to a 4 parameter logistic function to obtain IC50 values. […]
Catalogue of EC50 values

Below: 6 compounds and their reported EC50.
| compound | result |
| --- | --- |
| Cc1noc(-c2ccc(-c3ccc(S(C)(=O)=O)cc3)cc2)c1NC(=O)O[C@H](C)c1ccccc1 [IT124] | > 500 nM |
| Cc1nsc(-c2cc3sc(-c4ccc(CC(=O)O)cc4C(F)(F)F)cc3s2)c1NC(=O)O[C@H](C)c1ccccc1 [IT337] | > 500 nM |
| Cc1noc(-c2ccc(-c3ccc(Oc4ccc(C(=O)O)o4)cc3)cc2)c1NC(=O)O[C@H](C)c1ccccc1 [IT388] | 50 to 500 nM |
| Cc1cc(C2(C(=O)O)CC2)ccc1-c1cc2sc(-c3nnn(C)c3NC(=O)O[C@H](C)c3ccccc3)cc2s1 [IT291] | < 50 nM |
| C[C@@H](OC(=O)Nc1c(-c2ccc(C#CC(=O)N[C@H](C(=O)O)c3ccccc3)cc2)cnn1C)c1ccccc1 [IT402] | > 500 nM |
| C[C@@H](OC(=O)Nc1c(-c2cc3sc(-c4cc(F)c(CC(=O)O)cc4F)cc3s2)cnn1C)c1ccccc1 [IT327] | 50 to 500 nM |

EC50 of C[C@@H](OC(=O)Nc1c(-c2cc3sc(-c4ccc5scc(CC(=O)O)c5c4)cc3s2)cnn1C)c1ccccc1 [IT353] on LPA/S1P GPCR of interest (Homo sapiens, UniProt Q92633)?
50 to 500 nM

EC50 of Cc1nsc(-c2cc3sc(-c4ccc(CC(=O)O)c5ccccc45)cc3s2)c1NC(=O)O[C@H](C)c1ccccc1 [IT317] on LPA/S1P GPCR of interest (Homo sapiens, UniProt Q92633)?
> 500 nM

EC50 of Cc1noc(-c2ccc(NC(=O)c3coc(C4(C(=O)O)CC4)c3)cc2)c1NC(=O)O[C@H](C)c1ccccc1 [IT224] on LPA/S1P GPCR of interest (Homo sapiens, UniProt Q92633)?
< 50 nM

EC50 of C[C@@H](OC(=O)Nc1c(-c2cc3sc(-c4ccc5c(C6(C(=O)O)CC6)coc5c4)cc3s2)nnn1C)c1ccccc1 [IT396] on LPA/S1P GPCR of interest (Homo sapiens, UniProt Q92633)?
50 to 500 nM

EC50 of C[C@@H](OC(=O)Nc1c(-c2ccc(-c3ccc(OC(C)(C)C(=O)O)cc3)cc2)cnn1C)c1ccccc1 [IT510] on LPA/S1P GPCR of interest (Homo sapiens, UniProt Q92633)?
50 to 500 nM

EC50 of C[C@@H](OC(=O)Nc1c(-c2ccc(-c3cc(F)c(Oc4cccnc4C(=O)O)c(F)c3)cc2)nnn1C)c1ccccc1 [IT452] on LPA/S1P GPCR of interest (Homo sapiens, UniProt Q92633)?
< 50 nM

====

Target: LPA1 (Homo sapiens, UniProt Q92633)
Assay: LPA1 Migration Assay (Oris)
Settings: read-out: Cell Migration EC50
pEC50: −log10 of the molar value.
Catalogue of pEC50 values

| compound | tgt | pEC50 |
| --- | --- | --- |
| C[C@@H](OC(=O)Nc1c(-c2ccc(-c3cc(F)c(OC4(C(=O)O)CC4)c(F)c3)cc2)cnn1C)c1ccccc1 [IT314] | LPA1 (Homo sapiens, UniProt Q92633) | < 6.30 |
| Cc1nsc(-c2cc3sc(-c4cnc(C5(C(=O)O)CC5)s4)cc3s2)c1NC(=O)O[C@H](C)c1ccccc1 [IT184] | LPA1 (Homo sapiens, UniProt Q92633) | < 6.30 |
| Cc1noc(-c2ccc(-c3cc(F)c(Oc4ccncc4C(=O)O)c(F)c3)cc2)c1NC(=O)O[C@H](C)c1ccccc1 [IT300] | LPA1 (Homo sapiens, UniProt Q92633) | > 7.30 |
| CC(C)OC(=O)C1(c2cc3sc(C#Cc4cnn(C)c4NC(=O)O[C@H](C)c4ccccc4)cc3s2)CC1 [IT086] | LPA1 (Homo sapiens, UniProt Q92633) | < 6.30 |

# input compound: Cc1noc(-c2ccc(-c3ccc(Oc4ncsc4C(=O)O)cc3)cc2)c1NC(=O)O[C@H](C)c1ccccc1 [IT417] ; wanted: its pEC50
6.30 to 7.30

====

Biological target: LPA/S1P GPCR of interest (Homo sapiens, UniProt Q92633)
Experiment: Beta-Arrestin based assay (PathHunter)
pEC50: −log10 of the molar value.
quantityKind: pEC50

Below: 5 molecules and their reported pEC50.
| mol | tgt | pEC50 |
| --- | --- | --- |
| C[C@@H](OC(=O)Nc1c(-c2cc3sc(-c4ccc5c(CC(=O)O)coc5c4)cc3s2)nnn1C)c1ccccc1 | LPA/S1P GPCR of interest (Homo sapiens, UniProt Q92633) | 6.30 to 7.30 |
| Cc1nsc(-c2cc3sc(-c4ccc(C5(C(=O)O)CC5)c(C(F)(F)F)c4)cc3s2)c1NC(=O)O[C@H](C)c1ccccc1 | LPA/S1P GPCR of interest (Homo sapiens, UniProt Q92633) | 6.30 to 7.30 |
| C[C@@H](OC(=O)Nc1c(-c2ccc(-c3cc(F)c(Oc4ccncc4C(=O)O)c(F)c3)cc2)cnn1C)c1ccccc1 | LPA/S1P GPCR of interest (Homo sapiens, UniProt Q92633) | > 7.30 |
| C[C@@H](OC(=O)Nc1c(-c2ccc(-c3ccc(Oc4ccccc4C(=O)O)c(F)c3)cc2)cnn1C)c1ccccc1 | LPA/S1P GPCR of interest (Homo sapiens, UniProt Q92633) | > 7.30 |
| COc1cc(C2(C(=O)O)CC2)ccc1-c1cc2sc(-c3nnn(C)c3NC(=O)O[C@H](C)c3ccccc3)cc2s1 | LPA/S1P GPCR of interest (Homo sapiens, UniProt Q92633) | 6.30 to 7.30 |

Now consider the entry below.
# input molecule: `Cc1nsc(-c2ccc3c(c2)CCCc2cc(CC(=O)O)ccc2-3)c1NC(=O)O[C@H](C)c1ccccc1` ; wanted: its pEC50
6.30 to 7.30

====

Biological target: LPA1 (Homo sapiens, UniProt Q92633)
Experiment: Ca Flux LPA1 assay
quantityKind: IC50

| mol | result |
| --- | --- |
| C[C@@H](OC(=O)Nc1c(-c2cc3sc(-c4cc(F)c(C5(C(=O)O)CC5)c(F)c4)cc3s2)nnn1C)c1ccccc1 | 50 to 500 nM |
| CCn1ncc(-c2ccc(-c3cc(F)c(Oc4ncccc4C(=O)O)c(F)c3)cc2)c1NC(=O)O[C@H](C)c1ccccc1 | 50 to 500 nM |

Now consider the entry below.
# input compound: `C[C@@H](OC(=O)Nc1c(-c2ccc(-c3ccc(C4(C(=O)O)CC4)s3)cc2)nnn1C)c1ccccc1` ; wanted: its IC50
< 50 nM

====

Molecular target: LPA1 (Homo sapiens, UniProt Q92633)
Assay: Ca Flux LPA1 assay
Catalogue of IC50 values

Below: 6 molecules and their reported IC50.
| molecule | IC50 |
| --- | --- |
| Cc1noc(-c2ccc(-c3ccc(Oc4ccccc4C(=O)O)cc3)cc2)c1NC(=O)O[C@H](C)c1ccccc1 | 50 to 500 nM |
| Cc1nsc(-c2ccc(-c3ccc(C4(C(=O)O)CC4)cc3)cc2)c1NC(=O)OC(c1ccccc1)C(F)(F)F (single isomer, unassigned) | 50 to 500 nM |
| CCC(C)OC(=O)Nc1c(C)noc1-c1ccc(-c2ccc(Oc3ccccc3C(=O)O)cc2)cc1 (single isomer, unassigned) | < 50 nM |
| C[C@@H](OC(=O)Nc1c(-c2ccc(-c3cc(F)c(Oc4ncccc4C(=O)O)c(F)c3)cc2)cnn1C)c1ccccc1 | 50 to 500 nM |
| C[C@@H](OC(=O)Nc1c(C(F)(F)F)nnn1-c1ccc(-c2ccc(C3(C(=O)O)CC3)cc2)cc1)c1ccccc1 | 50 to 500 nM |
| Cc1noc(-c2ccc(-c3cc(F)c(Oc4nc5ccccc5cc4C(=O)O)c(F)c3)cc2)c1NC(=O)O[C@H](C)c1ccccc1 | > 500 nM |

IC50 of `C[C@@H](OC(=O)Nc1c(C#Cc2cc(F)c(Oc3ncccc3C(=O)O)c(F)c2)cnn1C)c1ccccc1` on LPA1 (Homo sapiens, UniProt Q92633)?
< 50 nM

IC50 of `Cc1noc(-c2cc(F)c(-c3ccc(Oc4ccccc4C(=O)O)cc3)cc2F)c1NC(=O)O[C@H](C)c1ccccc1` on LPA1 (Homo sapiens, UniProt Q92633)?
< 50 nM
